Data origin, for the record: PubChem BioAssay AID248

system: L1210 leukemia ip in BDF1 mice, survival T/C; test: NCI In Vivo Anticancer Drug Screen. Data for tumor model L1210 Leukemia (intraperitoneal) in B6D2F1 (BDF1) mice; conditions: endpoint: mean survival time; dose: 25.0 mg/kg/injection; schedule: Q04DX003 (ip); vehicle: saline with Tween-80; higher = longer survival
Toxic doses and inconclusive results are not listed.
OBSERVABLE: T/C

CC[N+](CC)(CC)CCCCC[N+](CC)(CC)CC : 94 % of control

Field: T/C. Fill in for each record below.
1. Cc1ccc(Cl)cc1NC(=O)Nc1ccc(F)c([N+](=O)[O-])c1
2. COc1ccc(CCNC(=O)Cc2ccc(OC)c(OC)c2)cc1OC
3. COc1ccc2c(ccc[n+]2C)c1

Result:
1: 90 % of control; 2: 110 % of control; 3: 102 % of control
